- ASSAY INFO: Determination of aqueous (kinetic) solubility
- Type: physicochemical
- CONDITION INFO: aqueous buffer, kinetic from dmso stock, buffer pH 7.4
REPORTED PROPERTY: solubility

SMILES | REPORTED PROPERTY | RECORDED MEASUREMENT
O=C(Cc1ccc(F)c(C(F)(F)F)c1)Nc1c(Cl)ccc2c(=O)n(CCO)ccc12 | solubility | < 25 µM

Could you report solubility for every entry in the following list?
1. Cc1ccc2c(=O)n([C@H](C)CO)ccc2c1NC(=O)Cc1ccc(C(F)(F)F)c(F)c1
2. C[C@H](C(N)=O)n1ccc2c(NC(=O)Cc3ccc(C(F)(F)F)cc3)cccc2c1=O

RESULT:
> 75 µM
< 25 µM

----------
Field: inhibition at 0.3 µM. Provide a value for each of the molecules that follow.
- ASSAYED SYSTEM: P2X7 receptor (Homo sapiens, UniProt Q99572)
- Construct: host or cells: THP-1 cells differentiated with LPS and IFN-γ
- Sequence (Q99572 whole entry): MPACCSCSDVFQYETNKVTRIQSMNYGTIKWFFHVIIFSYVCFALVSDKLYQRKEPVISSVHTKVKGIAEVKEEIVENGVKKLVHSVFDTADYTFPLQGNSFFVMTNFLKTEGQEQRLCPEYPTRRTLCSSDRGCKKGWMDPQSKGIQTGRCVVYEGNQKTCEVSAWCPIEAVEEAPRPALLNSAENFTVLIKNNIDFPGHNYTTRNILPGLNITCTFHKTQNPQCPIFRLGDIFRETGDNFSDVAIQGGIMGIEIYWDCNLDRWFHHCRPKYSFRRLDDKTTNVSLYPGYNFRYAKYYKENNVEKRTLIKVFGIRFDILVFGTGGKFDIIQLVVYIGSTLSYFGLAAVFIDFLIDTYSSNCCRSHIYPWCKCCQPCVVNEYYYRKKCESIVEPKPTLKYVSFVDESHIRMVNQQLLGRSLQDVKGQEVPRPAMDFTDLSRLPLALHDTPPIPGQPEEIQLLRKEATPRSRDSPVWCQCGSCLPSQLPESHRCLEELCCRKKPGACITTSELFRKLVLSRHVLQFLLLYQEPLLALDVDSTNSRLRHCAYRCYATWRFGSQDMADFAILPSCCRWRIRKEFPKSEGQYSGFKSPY
- ASSAY INFO: IL-1β release assay in differentiated THP-1 cells stimulated with BzATP (Example 9)
- Type: cell-based
- CONDITION INFO: 0.3 μM compound; differentiated THP-1 cells, BzATP 250 uM; "+" symbols; read-out: IL-1β % Inhib. @ 0.3 or 0.1 uM

Could you report inhibition at 0.3 µM for every entry in the following list?
1. CNC(=O)[C@@H](CO)n1ccc2c(NC(=O)C(C)c3ccc(Cl)cc3)cccc2c1=O (stereo partly shown) [Compound 261]
2. CC(C)(CO)n1ccc2c(NC(=O)Cc3ccc(Cl)c(C(F)(F)F)c3)cccc2c1=O [Compound 369]
3. C[C@H](C(N)=O)n1ccc2c(NC(=O)Cc3ccccc3F)cccc2c1=O [Compound 294]

RESULT:
1: 51 to 75%; 2: > 76%; 3: 26 to 50%

Could you report inhibition at 0.3 µM for every entry in the following list?
1. C[C@H](C(N)=O)n1ccc2c(NC(=O)Cc3ccc(C(F)(F)F)c(F)c3)cccc2c1=O [Compound 306]
2. C[C@H](C(N)=O)n1ccc2c(NC(=O)Cc3cccc(C(F)(F)F)c3F)c(Cl)ccc2c1=O [Compound 342]
3. CNCCn1ccc2c(NC(=O)Cc3ccc(Cl)c(C(F)(F)F)c3)cccc2c1=O [Compound 235]
4. C[C@@H](C(N)=O)n1ccc2c(NC(=O)Cc3ccc(C(F)(F)F)cc3)cccc2c1=O [Compound 351]
5. CNCCn1ccc2c(NC(=O)Cc3ccc(Cl)c(Cl)c3)cccc2c1=O [Compound 234]
6. O=C(Cc1cccc(C(F)(F)F)c1F)Nc1c(NCCO)ccc2c(=O)n(CCO)ccc12 [Compound 385]
7. CC(C(=O)Nc1cccc2c(=O)n(CCO)ccc12)c1ccc(Cl)cc1 (stereo not shown) [Compound 244]

RESULT:
["> 76%", "> 76%", "> 76%", "> 76%", "51 to 75%", "0 to 25%", "26 to 50%"]

----------
- ASSAY INFO: in vitro
- CONDITION INFO: human, microsomes, pH 7.4
Field: half-life. Provide a value for each of the molecules that follow.
Give bare numbers, in h.

SMILES | RECORDED MEASUREMENT
Cc1ccc2c(=O)n([C@H](C)CO)ccc2c1NC(=O)Cc1ccc(C(F)(F)F)c(F)c1 | 1.45

--- query ---
QUERY: For O=C(Cc1ccc(C(F)(F)F)c(F)c1)Nc1c(Cl)ccc2c(=O)n(CCO)ccc12 , what is its reported half-life?
RESULT: 3.65
